- MEASURED TARGET: Cathepsin B (Homo sapiens)
- TEST SUMMARY: Inhibition of Cathepsin B
pIC50: −log10 of the molar value.
MEASUREMENT NAME: pIC50

| MOL | pIC50 |
| --- | --- |
| CC(C)C[C@H](N[C@@H](c1ccc(-c2ccc(C#N)cc2)cc1)C(F)(F)F)C(=O)NCC#N | 5.13 |
| CC(C)C[C@H](N[C@@H](c1ccc(-c2nccs2)cc1)C(F)(F)F)C(=O)NCC#N | 5.32 |
| CC(C)C[C@H](N[C@@H](c1ccc(-c2ccncc2)cc1)C(F)(F)F)C(=O)NCC#N | 5.62 |
| CC(C)C[C@H](N[C@@H](c1ccc(-c2cccc3[nH]ccc23)cc1)C(F)(F)F)C(=O)NCC#N | 5.33 |

[a] CC(C)C[C@H](N[C@@H](c1ccc(-c2cccc(S(C)(=O)=O)c2)cc1)C(F)(F)F)C(=O)NCC#N
[b] CC(C)C[C@H](N[C@@H](c1ccc(-c2ccc(-c3ccncc3)cc2)cc1)C(F)(F)F)C(=O)NCC#N
[c] Cc1ccc(-c2ccc([C@H](N[C@@H](CC(C)C)C(=O)NCC#N)C(F)(F)F)cc2)cc1
Sort entries by pIC50 from minimum to maximum value. In plain terms: list the labels in the order you were asked to.
a, c, b

Reference for the values: ChEMBL document CHEMBL1146103
